system-tested: T1, anti-CD28 Fab (SEQ ID NOs: 202, 203)
T1 construct: biotinylated and captured on neutravidin coated plates in the phage ELISA
T1 sequence (VH, as listed by the source, chain 1 of 2): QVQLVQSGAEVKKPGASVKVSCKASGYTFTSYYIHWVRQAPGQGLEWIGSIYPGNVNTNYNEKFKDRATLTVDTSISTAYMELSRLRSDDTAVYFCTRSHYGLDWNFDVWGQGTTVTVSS
T1 sequence (VL, as listed by the source, chain 2 of 2): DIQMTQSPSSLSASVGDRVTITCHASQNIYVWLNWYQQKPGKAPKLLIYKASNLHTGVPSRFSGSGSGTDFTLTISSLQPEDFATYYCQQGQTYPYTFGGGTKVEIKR
measurement-protocol: phage binding ELISA on captured biotinylated Fab;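 also: clonal phage supernatants added to wells preincubated with CD28 antigen or blocking buffer only, bound phage detected by ELISA with horseradish-conjugated anti-M13 antibody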
measured-quantity: Anti-CD28 Fab (SEQ ID NOs: 202, 203) signal
// return just the number, without any unit appended

Give me measured Anti-CD28 Fab (SEQ ID NOs: 202, 203) signal, please, for this binder: GCQYPWAFDAMSCP [Phage-6]
2.38

Give me measured Anti-CD28 Fab (SEQ ID NOs: 202, 203) signal, please, for this binder: TCSAGATWTWPQCL [Phage-944]
2.14

Give me measured Anti-CD28 Fab (SEQ ID NOs: 202, 203) signal, please, for this binder: WCWDYKLWVPMTCP [Phage-11]
2.51

Give me measured Anti-CD28 Fab (SEQ ID NOs: 202, 203) signal, please, for this binder: TCAAGAAWPWPQCL [Phage-890]
2.23

Give me measured Anti-CD28 Fab (SEQ ID NOs: 202, 203) signal, please, for this binder: MCAAGAHYTWPTCL [Phage-977]
1.97

Give me measured Anti-CD28 Fab (SEQ ID NOs: 202, 203) signal, please, for this binder: MCAAGATYPWPLCL [Phage-970]
1.99

Give me measured Anti-CD28 Fab (SEQ ID NOs: 202, 203) signal, please, for this binder: WICDKSGSIMLCRA [Phage-17]
0.91

Give me measured Anti-CD28 Fab (SEQ ID NOs: 202, 203) signal, please, for this binder: SCSAGAHYPWPQCF [Phage-898]
1.16

Give me measured Anti-CD28 Fab (SEQ ID NOs: 202, 203) signal, please, for this binder: LCAEFFNYPWPLCL [Phage-975]
1.98

Give me measured Anti-CD28 Fab (SEQ ID NOs: 202, 203) signal, please, for this binder: TCAAVFSYGWPECF [Phage-949]
2.09

Give me measured Anti-CD28 Fab (SEQ ID NOs: 202, 203) signal, please, for this binder: YCAGHSHEYLAKCE [Phage-24]
0.86

Give me measured Anti-CD28 Fab (SEQ ID NOs: 202, 203) signal, please, for this binder: LCAAGATYPWPFCL [Phage-919]
2.28

Give me measured Anti-CD28 Fab (SEQ ID NOs: 202, 203) signal, please, for this binder: MCSAGAMYSWPLCL [Phage-918]
2.29

Give me measured Anti-CD28 Fab (SEQ ID NOs: 202, 203) signal, please, for this binder: LCNAGATYSWPTCL [Phage-940]
2.14

Give me measured Anti-CD28 Fab (SEQ ID NOs: 202, 203) signal, please, for this binder: TCAAGAHWPWPTCF [Phage-938]
2.15

Give me measured Anti-CD28 Fab (SEQ ID NOs: 202, 203) signal, please, for this binder: WCWDYKLWVPTQCP [Phage-7]
2.27
